assay_target: S. mansoni TGR (Schistosoma mansoni, UniProt Q962Y6)
Sequence (Q962Y6 1-598): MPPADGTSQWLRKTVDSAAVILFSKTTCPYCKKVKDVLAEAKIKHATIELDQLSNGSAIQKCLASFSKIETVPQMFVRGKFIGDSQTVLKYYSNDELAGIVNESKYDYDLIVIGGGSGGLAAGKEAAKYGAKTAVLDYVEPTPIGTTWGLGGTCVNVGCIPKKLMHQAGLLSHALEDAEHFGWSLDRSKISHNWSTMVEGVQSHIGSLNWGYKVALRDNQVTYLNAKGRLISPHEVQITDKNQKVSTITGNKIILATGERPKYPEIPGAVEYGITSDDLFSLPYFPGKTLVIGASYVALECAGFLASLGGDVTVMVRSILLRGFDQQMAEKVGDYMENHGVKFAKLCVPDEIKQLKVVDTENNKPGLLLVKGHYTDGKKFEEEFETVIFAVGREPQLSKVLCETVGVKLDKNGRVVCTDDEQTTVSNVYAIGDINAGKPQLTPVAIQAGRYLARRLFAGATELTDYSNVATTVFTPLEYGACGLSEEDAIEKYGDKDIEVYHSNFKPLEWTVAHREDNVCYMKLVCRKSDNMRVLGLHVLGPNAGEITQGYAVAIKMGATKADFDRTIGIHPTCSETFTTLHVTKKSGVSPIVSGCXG
assay_protocol: biochemical
Assay type: biochemical
Design: The entire TGR ORF plus the SECIS element was subcloned into pET-24a; made in house; host or cells: Escherichia coli BL21(DE3) with pSUABC
condition_summary: GSSG as substrate; read-out: Ki (± standard deviation), GR activity of TGR

molecule: O.O.O.O=C([O-])[C@H]([O-])[C@@H]([O-])C(=O)[O-].O=C([O-])[C@H]([O-])[C@@H]([O-])C(=O)[O-].[K+].[K+].[Sb+3].[Sb+3] [PAT, potassium antimonyl tartrate]
Ki [nM]: 7.22
